Entries and their EC50 values follow.
- Experimental Details: ST_JUDE: Cytotoxicity using luciferase to measure ATP as an indicator of the viability of human epithelial embryonic kidney cells (HEK293)
- Format: toxicity, cell-based
Endpoint: EC50

* CCOc1cc2c(cc1OCC)C(c1cc(Cl)ccc1O)NCC2 (stereo not drawn) | > 46.9 µM
* CCCCn1c(=N)n(CC(O)c2ccc(Br)cc2)c2ccccc21 (stereo not drawn) | > 43.4 µM
* O=C1C(Nc2ccc(Br)cc2)=C(n2nnc3ccccc32)C(=O)c2ccccc21 | > 24.8 µM
* CC(C)(C)c1cc(/N=N/C(=O)c2ccncc2)cc(C(C)(C)C)c1O | 0.971 µM
* O=C(Nc1cccc(Cl)c1N1CCOCC1)C(Cl)(Cl)Cl | > 30.2 µM
* C[N+](C)(C)c1nc(N2CCOCC2)nc(N(c2ccccc2)c2ccccc2)n1 | > 42.8 µM
* CC(C)CN1C(=O)c2ccccc2C(C(=O)Nc2cccc(C(F)(F)F)c2)C1c1cccs1 (stereo not drawn) | > 47.2 µM
* CCCCOc1ccc(N(C(C)=O)C2=C(N3CCCCC3)C(=O)c3ccccc3C2=O)cc1 | > 28.5 µM
* O=[N+]([O-])c1ccc(S(=O)(=O)N2CCN(C(=S)NCc3ccco3)CC2)cc1 | > 31.7 µM
* CC[n+]1c(/C=C/c2ccc(N(C)C)cc2)ccc2cc(OC)ccc21 | > 23.2 µM
* CCOc1ccc(Nc2nc(NCc3ccccc3)c3ccccc3n2)cc1 | 8.67 µM
* Cc1ccc(C)c(N2CCN(Cc3cc(Cl)ccc3O)CC2)c1 | > 35.9 µM
* O=[N+]([O-])c1ccc2c(c1)c1ccccc1n2Cc1ccccc1O | > 35.3 µM
* N=c1n(CCN2CCCCC2)c2ccccc2n1CC(O)c1ccc(Cl)c(Cl)c1 (stereo not drawn) | 16 µM
* Cc1ccc(N2C(N)=NC(N)=NC2(C)C)cc1 | > 34.9 µM
* CCCO/C(O)=C1\C(C)=NC2=C(C(=O)CC(c3ccc(OC)cc3)C2)C1c1ccccc1Cl (stereo not drawn) | > 41.9 µM
* CCCCCCCCCC[n+]1ccccc1 | > 48.9 µM
* COc1ccc(C2CC(=O)C3=C(C2)NC(=O)CC3c2ccc(OC)c(OC)c2)cc1 (stereo not drawn) | > 45.4 µM

Hey, just so you know, these numbers are from ChEMBL document CHEMBL1154198.
